Assay: plasma levels of pyridostigmine in rats
Format: in vivo, rat
Settings: plasma, im, 0.08 mg, approximately 80 μg per rat, after 7 min
readout-kind: concentration at 7 min (ng/mL)

1) CN(C)C(=O)Oc1ccc[n+](C)c1 | 250
